subject of test: Potassium voltage-gated channel subfamily KQT member 2 (Rattus norvegicus)
experiment: blockers of KCNQ2 thallium flux – cell-based, confirmation (AID 493025)
cond: KCNQ2-expressing cells, at 10 µM; stronger effect = lower value
In all, about 1,000 compounds went through this assay and about 570 (57%) were called active. The set was probably picked from earlier hits. Not all results are given here.
// boundary case: activity change, negative = inhibition equal to -30% maps to N; strictly smaller maps to Y

Check out these entries, answers already filled in.
# compound, cat
records = [
    ("Cc1nc2ccccc2c(-c2ccccc2)c1C(=O)c1ccccc1", "Y"),
    ("CN(Cc1ccccc1F)C(=O)C(Cc1ccccc1)NC(=O)c1ccccc1 (stereo unspecified)", "N"),
    ("CC(C)N(C(=O)CSc1nc(COc2ccccc2)nc2ccccc12)C(C)C", "Y"),
    ("COC(=O)C1=C(C)N(C(C)c2ccccc2)C(=O)/C1=C\\c1ccco1 (stereo unspecified)", "N"),
    ("CCOC(=O)C(C)Sc1nc2ccccc2c(=O)n1CC1CCCCC1 (stereo unspecified)", "Y"),
]

Attention now turns to another entry.
Inquiry: activity change, negative = inhibition strictly < -30% for this compound? C=CS(=O)c1sc(Cl)c(N2CCOCC2)c1[N+](=O)[O-] (stereo unspecified)
Reply text: Y
